- Test system: Puccinia recondita f. sp. tritici (the causal agent of wheat leaf rust)
- assay overview: Test C: preventive spray on wheat seedlings, wheat leaf rust, visual disease rating
- Assay type: in vivo
- measurement setup: test suspension 10 ppm; wheat seedlings
Catalogue of Test C disease control rating readings, one per entry.

compound: C=CCOC(=O)c1coc(Cc2ccc(-c3noc(C(F)(F)F)n3)cc2)n1 [compound 334]
Test C disease control rating: 86%
//
compound: COC(=O)c1cccc2cnn(Cc3ccc(-c4noc(C(F)(F)F)n4)cc3)c12 [compound 47]
Test C disease control rating: 74%
//
compound: C=CCOC(=O)c1cc(C)n(Cc2ccc(-c3noc(C(F)(F)F)n3)cc2)n1 [compound 186]
Test C disease control rating: 74%
//
compound: Cc1cccc2nn(Cc3ccc(-c4noc(C(F)(F)F)n4)cc3)cc12 [compound 102]
Test C disease control rating: 99%
//
compound: CCCOC(=O)c1cnn(C(C)c2ccc(-c3noc(C(F)(F)F)n3)s2)c1 (centres unmarked) [compound 248]
Test C disease control rating: 100%
//
compound: CC(C)NC(=O)c1cnn(Cc2ccc(-c3noc(C(F)(F)F)n3)cc2)c1 [compound 63]
Test C disease control rating: 100%
//
compound: CCOC(=O)c1cnn(CCCn2nc(-c3noc(C(F)(F)F)n3)ccc2=O)c1 [compound 358]
Test C disease control rating: 0%
//
compound: CCON=C(C)COC(=O)c1cnn(Cc2ccc(-c3noc(C(F)(F)F)n3)cc2)c1 [compound 221]
Test C disease control rating: 95%
//
compound: CC(COC(=O)c1cnn(Cc2ccc(-c3noc(C(F)(F)F)n3)cc2)c1)=NOC(C)(C)C [compound 220]
Test C disease control rating: 86%
//
compound: CCOC(=O)c1cnn(CSCc2ccc(-c3noc(C(F)(F)F)n3)cc2)c1 [compound 241]
Test C disease control rating: 100%
//
compound: Cc1cccc2c1cnn2Cc1ccc(-c2noc(C(F)(F)F)n2)cc1 [compound 100]
Test C disease control rating: 86%
//
compound: O=C(NCC(F)(F)C(F)(F)F)c1coc(Cc2ccc(-c3noc(C(F)(F)F)n3)cc2)n1 [compound 328]
Test C disease control rating: 100%
//
compound: CCOC(=O)CNC(=O)c1cnn(Cc2ccc(-c3noc(C(F)(F)F)n3)cc2)c1 [compound 378]
Test C disease control rating: 98%
//
compound: FC(F)(F)c1nc(-c2ccc(OCc3ccon3)cc2)no1 [compound 318]
Test C disease control rating: 0%
//
compound: FC(F)(F)c1nc(-c2ccc(CN3Cc4ccccc4C3)cc2)no1 [compound 160]
Test C disease control rating: 98%
//
compound: O=C(NCc1nccs1)c1coc(Cc2ccc(-c3noc(C(F)(F)F)n3)cc2)n1 [compound 277]
Test C disease control rating: 100%
//
compound: CON=C(COC(=O)c1cnn(Cc2ccc(-c3noc(C(F)(F)F)n3)cc2)c1)c1ccccc1 [compound 245]
Test C disease control rating: 86%
//
compound: N#CCNC(=O)c1csc(Cc2ccc(-c3noc(C(F)(F)F)n3)cc2)c1 [compound 288]
Test C disease control rating: 100%
//
compound: N#CCNC(=O)c1cnn(COc2ccc(-c3noc(C(F)(F)F)n3)cc2)c1 [compound 214]
Test C disease control rating: 74%
//
compound: O=C(NCC(F)(F)F)c1cnn(COc2ccc(-c3noc(C(F)(F)F)n3)cc2)c1 [compound 212]
Test C disease control rating: 100%

Reference source: patent US20240090503A1
